Values were extracted from patent US20240262892A1.

Record form. Attribute: OD450. Fill in for each entry.
- target.of.assay: T1, SARS-CoV-2 S1 protein NTD (N-terminal domain of spike protein of SARS-CoV-2) (SARS-CoV-2, UniProt P0DTC2 14-305)
- T1 construct: also called S1-NTD; NTD of S1 subunit
- protocol.description: ELISA, S1-NTD coated on the plate, antibody at one concentration, anti-human IgG-HRP

The recorded OD450 for entry Antibody 14-8 (antibody, V domains shown) VH: QVQLVQSGAEVKKPGASVKVSCKASGYTFTGYYIHWVRQAPGKGPEWMGWINPNSGGTNYAQKFQGWVTMTRDTSISAAYMELSRLKFDDTAIYYCAKSGEKVGADLGYYDYGMDLWGQGTTVTVSS VL: SYELTQPPSVSVSPGQTARITCSGDALPKQYAYWYQQKPGQAPVMVIYKDTERPSGIPERFSGSSSGTTVTLTISGVQAEDEADYNCQSVDSSGAYVVFGGGTKLTVL equals 3.98

The recorded OD450 for entry Antibody 12-9 (antibody, V domains shown) VH: EVQLVESGGGLVKPGGSLRLSCAASEFTFSSYSMNWVRQAPGKGLEWVSSISSSGSDIYYADSVKGRFTISRDNAKKSLYLQMNSLRVEDTAVYYCATNGGAHSSTWSFYGMDVWGQGTTVTVSS VL: SYELTQPPSVSVSPGQTATITCSGDKLGDKYACWYQQRPGQSPVLVIYQDSKRPSGIPERFSGSNSGNTATLTIGGTQAMDEAAYFCQAWDSNTGVFGGGTKLTVL equals 3.76

The recorded OD450 for entry Antibody 12-13 (antibody, V domains shown) VH: QVQVVQSGAEVKKPGASVKVSCKVSGYTLTELSIHWVRQTPGKGLEWMGGFDPEDGETIYAQWLQGRVTMTEDTSTDIAYMELSSLRHEDTAVYYCATGPAIAGAGTNWFDPRGQGTLVIVSS VL: QSALTQPASVSGSPGQSITISCTGTSSDVGGYNYVSWYQQHPGKAPKLMIYDVSKRPSGVPDRFSGSKSGNTASLTISGLQAEDEADYYCTSYTNSSTWVFGGGTKLTVL equals 3.96
